Just for reference, paper PMC6010128 is where these values come from.

- Measured On: AChE (Rattus norvegicus)
- Method Summary: biochemical
- Measurement Setup: rat brain AChE, Mean ± SD, triplicate
Value Type: IC50 (µM)
I only need the number, in µM, no unit after it.

{"Molecule": "C/C=C/C=C/C(=O)Nc1cccc(OCCN2CCCCC2)c1 [Compound 17f]", "IC50 [µM]": 44.2}
{"Molecule": "C/C=C/C=C/C(=O)Nc1ccc(OCCN(CC)CC)cc1 [Compound 18e]", "IC50 [µM]": 189}
{"Molecule": "CCCCCC(=O)Nc1ccc(OCCN2CCCC2)cc1 [Compound 24g]", "IC50 [µM]": 16.9}

Prompt: Data request, read-out IC50, for C/C=C/C=C/C(=O)Nc1ccccc1OCCN1CCCC1 [Compound 16g]
Response: 278

Prompt: Data request, read-out IC50, for C/C=C/C=C/C(=O)Nc1ccc(OCCN2CCCCC2)cc1 [Compound 18f]
Response: 12.3

Prompt: Data request, read-out IC50, for C/C=C/C=C/C(=O)Nc1ccc(OCCN(C)C)cc1 [Compound 18d]
Response: 12.6

Prompt: Data request, read-out IC50, for CN(C)CCOc1ccccc1NC(=O)CCc1ccccc1 [Compound 10d]
Response: 285

----------
- Method Summary: pKa by pH-titration method
- Format: physicochemical
- Measurement Setup: read-out: pKa
In this section, each of the molecules is paired with its reported pKa.
Write the value as a bare number.

Prompt: Data request, read-out pKa, for CN(C)CCOc1ccc(NC(=O)C=Cc2ccccc2)cc1
Response: 7.18

Prompt: Data request, read-out pKa, for CCN(CC)CCOc1ccc(NC(=O)C=Cc2ccccc2)cc1
Response: 6.97

Prompt: Data request, read-out pKa, for CCCCCC(=O)Nc1ccccc1OCCN1CCCC1 [Compound 22g]
Response: 7.16

Prompt: Data request, read-out pKa, for CCCCCC(=O)Nc1ccccc1OCCN(CC)CC [Compound 22e]
Response: 7.08

Prompt: Data request, read-out pKa, for C/C=C/C=C/C(=O)Nc1ccc(OCCN(C)C)cc1 [Compound 18d]
Response: 7.21

----------
- Measured On: BChE (Rattus norvegicus, UniProt Q9JKC1)
- Sequence (Q9JKC1 24-597): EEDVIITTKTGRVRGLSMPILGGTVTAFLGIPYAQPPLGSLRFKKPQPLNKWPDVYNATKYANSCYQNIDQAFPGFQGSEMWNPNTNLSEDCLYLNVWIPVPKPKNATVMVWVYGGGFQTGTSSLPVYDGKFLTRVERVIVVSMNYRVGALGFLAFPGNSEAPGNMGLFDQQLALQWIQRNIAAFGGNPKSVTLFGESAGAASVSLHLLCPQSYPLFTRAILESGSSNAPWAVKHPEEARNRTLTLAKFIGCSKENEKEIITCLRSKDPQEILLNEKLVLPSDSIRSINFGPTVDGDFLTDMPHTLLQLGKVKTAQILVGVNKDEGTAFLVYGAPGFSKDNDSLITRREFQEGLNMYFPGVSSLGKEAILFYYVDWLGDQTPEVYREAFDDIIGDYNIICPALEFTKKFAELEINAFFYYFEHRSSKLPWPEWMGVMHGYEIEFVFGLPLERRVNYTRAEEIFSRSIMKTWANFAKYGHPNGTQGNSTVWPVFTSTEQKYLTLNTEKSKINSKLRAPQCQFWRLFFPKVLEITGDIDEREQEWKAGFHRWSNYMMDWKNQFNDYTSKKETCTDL
- Method Summary: biochemical
- Set-up: species or system Sprague–Dawley rat
- Measurement Setup: rat serum BChE, Mean ± SD, triplicate
Value Type: pIC50
The read-out pIC50 is expressed as -log10 of concentration in moles per litre.

Prompt: Data request, read-out pIC50, for CN(C)CCOc1ccccc1NC(=O)CCc1ccccc1 [Compound 10d]
Response: 4.44

Prompt: Data request, read-out pIC50, for CCN(CC)CCOc1ccccc1NC(=O)C=Cc1ccccc1
Response: 5.16

Prompt: Data request, read-out pIC50, for O=C(CCc1ccccc1)Nc1ccc(OCCN2CCCCC2)cc1 [Compound 12f]
Response: 3.65

Prompt: Data request, read-out pIC50, for CCCCCC(=O)Nc1ccccc1OCCN(CC)CC [Compound 22e]
Response: 4.43

Prompt: Data request, read-out pIC50, for CN(C)CCOc1ccccc1NC(=O)C=Cc1ccccc1
Response: 4.95

----------
- Measured On: AChE (Rattus norvegicus)
- Method Summary: biochemical
- Measurement Setup: rat brain AChE, Mean ± SD, triplicate
In this section, each of the compounds is paired with its reported IC50.

{"Compound": "CCN(CC)CCOc1ccccc1NC(=O)CCc1ccccc1 [Compound 10e]", "IC50": "> 500 µM"}
{"Compound": "O=C(C=Cc1ccccc1)Nc1ccccc1OCCN1CCCCC1", "IC50": "141 µM"}
{"Compound": "O=C(CCc1ccccc1)Nc1ccc(OCCN2CCCCC2)cc1 [Compound 12f]", "IC50": "34.3 µM"}

The record that follows has no IC50 shown yet.
Prompt: Data request, read-out IC50, for CCN(CC)CCOc1ccc(NC(=O)C=Cc2ccccc2)cc1
Response: 10.6 µM

----------
- Measured On: BChE (Rattus norvegicus)
- Method Summary: biochemical
- Parameters: species or system Sprague–Dawley rat
- Measurement Setup: rat serum BChE, Mean ± SD, triplicate
Value Type: IC50 (µM)
I only need the number, in µM, no unit after it.

Prompt: Data request, read-out IC50, for CN(C)CCOc1ccc(NC(=O)CCc2ccccc2)cc1 [Compound 12d]
Response: 132

----------
- Measured On: AChE (Rattus norvegicus, UniProt P37136)
- Sequence (P37136 32-614): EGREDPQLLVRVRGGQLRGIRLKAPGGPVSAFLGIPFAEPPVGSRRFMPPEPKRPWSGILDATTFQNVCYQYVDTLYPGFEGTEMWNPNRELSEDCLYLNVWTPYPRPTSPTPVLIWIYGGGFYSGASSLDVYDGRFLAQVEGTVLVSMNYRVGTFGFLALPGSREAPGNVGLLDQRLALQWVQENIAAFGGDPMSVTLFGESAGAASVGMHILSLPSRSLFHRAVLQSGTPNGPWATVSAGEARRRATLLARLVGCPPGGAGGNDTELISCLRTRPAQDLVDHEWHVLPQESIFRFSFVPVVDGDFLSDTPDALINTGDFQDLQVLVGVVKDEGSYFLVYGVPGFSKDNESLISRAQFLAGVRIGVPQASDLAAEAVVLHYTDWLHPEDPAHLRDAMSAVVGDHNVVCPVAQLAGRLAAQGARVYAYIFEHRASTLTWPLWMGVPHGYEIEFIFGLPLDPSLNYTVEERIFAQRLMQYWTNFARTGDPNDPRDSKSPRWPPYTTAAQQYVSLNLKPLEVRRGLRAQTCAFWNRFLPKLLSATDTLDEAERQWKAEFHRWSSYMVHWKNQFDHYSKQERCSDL
- Method Summary: biochemical
- Measurement Setup: rat brain AChE, Mean ± SD, triplicate
In this section, each of the molecules is paired with its reported pIC50.
The read-out pIC50 is expressed as -log10 of concentration in moles per litre.

Worked examples, 3 molecules total:
{"Molecule": "CCCCCC(=O)Nc1ccc(OCCN2CCCCC2)cc1 [Compound 24f]", "pIC50": 4.50}
{"Molecule": "O=C(C=Cc1ccccc1)Nc1ccc(OCCN2CCCCC2)cc1", "pIC50": 5.36}
{"Molecule": "CN(C)CCOc1ccc(NC(=O)C=Cc2ccccc2)cc1", "pIC50": 5.30}

Prompt: Data request, read-out pIC50, for CCN(CC)CCOc1ccc(NC(=O)CCc2ccccc2)cc1 [Compound 12e]
Response: 4.07

Prompt: Data request, read-out pIC50, for C/C=C/C=C/C(=O)Nc1ccc(OCCN2CCCC2)cc1 [Compound 18g]
Response: 4.87

Prompt: Data request, read-out pIC50, for CN(C)CCOc1cccc(NC(=O)CCc2ccccc2)c1 [Compound 11d]
Response: 4.23

Prompt: Data request, read-out pIC50, for O=C(CCc1ccccc1)Nc1cccc(OCCN2CCCCC2)c1 [Compound 11f]
Response: 4.16

Prompt: Data request, read-out pIC50, for O=C(CCc1ccccc1)Nc1cccc(OCCN2CCCC2)c1 [Compound 11g]
Response: 4.23

Prompt: Data request, read-out pIC50, for CCCCCC(=O)Nc1ccc(OCCN(C)C)cc1 [Compound 24d]
Response: 4.38

Prompt: Data request, read-out pIC50, for CCN(CC)CCOc1cccc(NC(=O)C=Cc2ccccc2)c1
Response: 4.31

Prompt: Data request, read-out pIC50, for O=C(CCc1ccccc1)Nc1ccccc1OCCN1CCCCC1 [Compound 10f]
Response: 3.60

Prompt: Data request, read-out pIC50, for CCCCCC(=O)Nc1cccc(OCCN(C)C)c1 [Compound 23d]
Response: 4.22

Prompt: Data request, read-out pIC50, for C/C=C/C=C/C(=O)Nc1ccccc1OCCN(C)C [Compound 16d]
Response: 4.51

Prompt: Data request, read-out pIC50, for CCCCCC(=O)Nc1cccc(OCCN2CCCC2)c1 [Compound 23g]
Response: 4.29

Prompt: Data request, read-out pIC50, for CN(C)CCOc1cccc(NC(=O)C=Cc2ccccc2)c1
Response: 4.69

Prompt: Data request, read-out pIC50, for O=C(C=Cc1ccccc1)Nc1cccc(OCCN2CCCCC2)c1
Response: 4.69

Prompt: Data request, read-out pIC50, for CCCCCC(=O)Nc1cccc(OCCN(CC)CC)c1 [Compound 23e]
Response: 3.90

----------
In this section, each of the compounds is paired with its reported IC50.
- Measured On: BChE (Rattus norvegicus)
- Method Summary: biochemical
- Design: species or system Sprague–Dawley rat
- Measurement Setup: rat serum BChE, Mean ± SD, triplicate
I only need the number, in µM, no unit after it.

Worked examples, 5 compounds total:
{"Compound": "C/C=C/C=C/C(=O)Nc1ccccc1OCCN1CCCCC1 [Compound 16f]", "Result Number": 27.7}
{"Compound": "O=C(C=Cc1ccccc1)Nc1ccccc1OCCN1CCCC1 [Compound 4g]", "Result Number": 1.56}
{"Compound": "C/C=C/C=C/C(=O)Nc1cccc(OCCN(CC)CC)c1 [Compound 17e]", "Result Number": 79.5}
{"Compound": "C/C=C/C=C/C(=O)Nc1ccccc1OCCN(CC)CC [Compound 16e]", "Result Number": 91.8}
{"Compound": "C/C=C/C=C/C(=O)Nc1ccc(OCCN2CCCC2)cc1 [Compound 18g]", "Result Number": 118}

Prompt: Data request, read-out IC50, for C/C=C/C=C/C(=O)Nc1cccc(OCCN(C)C)c1 [Compound 17d]
Response: 50.4

Prompt: Data request, read-out IC50, for O=C(C=Cc1ccccc1)Nc1ccccc1OCCN1CCCCC1 [Compound 4f]
Response: 1.16

Prompt: Data request, read-out IC50, for CCCCCC(=O)Nc1cccc(OCCN(CC)CC)c1 [Compound 23e]
Response: 0.67

----------
- Measured On: AChE (Rattus norvegicus)
- Method Summary: biochemical
- Measurement Setup: rat brain AChE, Mean ± SD, triplicate
pIC50: −log10 of the molar value.
Would you please tag the item y when its pIC50 is 4 or above, and n when it is below?

Please review the entries below; each comes with its answer.
{"Compound": "CCCCCC(=O)Nc1ccc(OCCN(CC)CC)cc1 [Compound 24e]", "Classification": "n"}
{"Compound": "CCCCCC(=O)Nc1ccccc1OCCN1CCCCC1 [Compound 22f]", "Classification": "n"}
{"Compound": "CN(C)CCOc1ccccc1NC(=O)C=Cc1ccccc1", "Classification": "n"}
{"Compound": "C/C=C/C=C/C(=O)Nc1cccc(OCCN2CCCC2)c1 [Compound 17g]", "Classification": "y"}

We next turn to a different compound, shown below.
Prompt: Reported pIC50 reaches at least 4 for O=C(C=Cc1ccccc1)Nc1ccccc1OCCN1CCCC1 ?
Response: n
